Just for reference, paper PMC8398472 is where these values come from.

tested on: human ovarian carcinoma cisplatin-resistant A2780cisR; test: Cytotoxicity, WST-1 cell viability assay, A2780cisR; type: cell-based; conditions: 72 h exposure
measure_name: pIC50
Answers are plain numbers, as −log10 of the molar value.

The compound identified as N.N.[Cl][Pt][Cl] [cisplatin, reference compound] registered its pIC50 at 4.59
